The measurements presented in this section are drawn from ChEMBL document CHEMBL1201862.

Assign GI50 to each entry below.
Tested on: K562
Test: NCI tumour cell line growth inhibition, 48 h
Calls of active or inactive are those of the source. Rule as the data show it: active = GI50 up to about 1.1 µM and inactive = higher.

molecule	observable	result
Cc1cc2nc3c(C)c4ccccc4c(C)n3c2cc1C	GI50	5.21 µM (inactive)
COc1ccc(N2C(=O)CSC2c2cc3cc(Br)ccc3nc2Cl)cc1 (stereo not drawn)	GI50	14.1 µM (inactive)
CCOC(=O)/C(=C/Nc1c(C)n(C)n(-c2ccccc2)c1=O)C(C)=O	GI50	> 100 µM (inactive)

The following molecules each have a reported value; give each one's GI50.
1. c1ccc(C2(c3ccccc3)SSC3(S2)C2CC4CC(C2)CC3C4)cc1 (stereo not drawn)
2. O=[N+]([O-])c1ccc(C(Nc2ccccc2)c2ccc3cccnc3c2O)cc1 (stereo not drawn)
3. Cc1c2oc3c(C)cc(F)c(C(=O)NC4C(=O)NC(C(C)C)C(=O)N5CCCC5C(=O)N(C)CC(=O)N(C)C(C(C)C)C(=O)OC4C)c3nc-2c(C(=O)NC2C(=O)NC(C(C)C)C(=O)N3CCCC3C(=O)N(C)CC(=O)N(C)C(C(C)C)C(=O)OC2C)c(N)c1=O (stereo not drawn)
4. CCOC(=O)Nc1ccc(S(=O)(=O)I)cc1.CCOC(=O)Nc1ccc(S(=O)(=O)I)cc1.CNC(=O)N=O.NC(=O)OCCCl
5. O=C(O)c1cc2ccccc2c(Cc2c(O)c(C(=O)O)cc3ccccc23)c1O [PAMOIC ACID]
6. Cc1ncc([N+](=O)[O-])n1CCNC(=O)CCn1ccnc1[N+](=O)[O-]
7. COc1cccc2c1CCc1cc3c(N)nc(N)nc3nc1-2

Result:
1. > 100 µM (inactive)
2. 12.6 µM (inactive)
3. < 0.001 µM (active)
4. 40 µM (inactive)
5. > 100 µM (inactive)
6. > 100 µM (inactive)
7. 2.23 µM (inactive)

The following molecules each have a reported value; give each one's GI50.
1. COc1ccc2c(c1O)[C@@]13CCCC=C1[C@@H](C2)N(C)CC3
2. O=C1O/C(=C(/c2ccc(Cl)cc2)c2nc3ccccc3[nH]2)C(O)=C1c1ccc(Cl)cc1
3. CC(NC(=O)c1c(O)[nH]c(=S)[nH]c1=O)c1ccc([N+](=O)[O-])cc1 (stereo not drawn)

Result:
["21.3 µM (inactive)", "1.85 µM (inactive)", "43.7 µM (inactive)"]

The following molecules each have a reported value; give each one's GI50.
1. CC(=O)O[C@@H](c1nccn1Cc1ccccc1)[C@H]1OC(C)(C)O[C@@H]1[C@H]1COC(C)(C)O1
2. CC(C)(C)OC(=O)N(O)[C@@H]1C=C[C@H](n2cnc3c(N)ncnc32)C1
3. COc1cc2c(cc1Oc1c(Oc3c(O)c(OC)cc4c3C(CC(C)C)N(C)CC4)c(OC)cc3c1C(CC(C)C)N(C)CC3)C(CC(C)C)N(C)CC2 (stereo not drawn)
4. Cc1sc2ncnc(NCCc3ccccc3)c2c1C

Result:
1. > 100 µM (inactive)
2. > 100 µM (inactive)
3. 1.02 µM (active)
4. 2 µM (inactive)

Problem: So what does the record say about GI50 for "CC(=O)Nc1ccccc1-c1nc2ccccc2nc1-c1ccccc1" ?
Result: > 100 µM (inactive)

###

System: HOP-62
Assay: NCI tumour cell line growth inhibition, 48 h
Activity calls are given as the source filed them. Rule as the data show it: active = GI50 up to about 1.1 µM and inactive = higher.
observable: GI50

In [3]: df
Out[3]:
                                   compound  assay_system  observable               result
0  CCOC(=O)CN1C(=O)c2cc([N+](=O)[O-])cc3cc([N+](=O)[O-])cc(c23)C1=O        HOP-62        GI50  > 100 µM (inactive)
1     Cc1nc(C)c(N2CCN(S(N)(=O)=O)CC2)c(O)n1        HOP-62        GI50  > 100 µM (inactive)

The following compounds each have a reported value; give each one's GI50.
1. c1ccc(CN2CCC3(CC2)SSC2(CCN(Cc4ccccc4)CC2)SS3)cc1
2. CC(CC(=O)O)C(C(=O)O)C(=O)O (stereo unspecified)
3. COC(=O)C(CCC(=O)CCl)N1C(=O)c2ccccc2C1=O (stereo unspecified)

Result:
["> 100 µM (inactive)", "> 100 µM (inactive)", "16.1 µM (inactive)"]

The following compounds each have a reported value; give each one's GI50.
1. Nc1nc(SCC(=O)c2ccc(Br)cc2)c2nc[nH]c2n1
2. CN1CCN(Cn2nc(COc3ccccc3Cl)n(/N=C/c3ccc(-c4ccc(Cl)cc4Cl)o3)c2=S)CC1
3. CCOC(=O)/C(C(=S)NCc1ccccc1)=C(/N)N1CCCC1
4. O=C(c1ccccc1)[C@@H]1C[C@H](Sc2ccccc2)c2cc(Cl)ccc2N1
5. CC1(C)C(=O)/C=C\C(=O)C(C)(C)C2=CC=C(O2)C(C)(C)C(=O)C(Br)C(Br)C(=O)C(C)(C)C2=CC=C1O2 (stereo unspecified)

Result:
44.9 µM (inactive)
21.4 µM (inactive)
> 100 µM (inactive)
51.6 µM (inactive)
> 100 µM (inactive)

The following compounds each have a reported value; give each one's GI50.
1. Cc1cc(C)nc(NS(=O)(=O)c2ccc(NC(=O)c3cccc4c(Nc5ccc(S(=O)(=O)N=C(N)N)cc5)c5ccccc5nc34)cc2)n1
2. CC1(C)N/C(=C\[N+](=O)[O-])C(C)(C)N1O
3. O=C1CCCCC1CN1CCCC1 (stereo unspecified)
4. O=C(O)/C(Cl)=C(\Cl)C(=O)NC1C2CC3CC(C2)CC1C3 (stereo unspecified)
5. COc1c(Br)cc(/C=C(\C#N)c2ccccn2)cc1Br
6. CN(C)CCNC(=O)c1cc(-c2nccn2C)nc2ccccc12

Result:
["37.8 µM (inactive)", "> 10 µM (inactive)", "> 100 µM (inactive)", "> 100 µM (inactive)", "22.2 µM (inactive)", "50.8 µM (inactive)"]

The following compounds each have a reported value; give each one's GI50.
1. CCOc1ccccc1NC(=O)C(=O)CC(=O)c1sc(Nc2nnc(-c3ccc(Cl)c(Cl)c3)o2)nc1C
2. CC(=O)NC(CCCCNC(=O)OCc1ccccc1)C(=O)NCc1ccccc1 (stereo unspecified)
3. CCOC(=O)/C(=C\c1ccc(O)c(OC)c1)C(=O)c1ccccc1
4. CCN(CC)C(=S)SS(=O)(=O)c1ccc(N)cc1
5. O=C1/C(=C/c2ccc(OC(=O)c3ccccc3)cc2)CCC/C1=C\c1ccc(OC(=O)c2ccccc2)cc1

Result:
> 100 µM (inactive)
> 100 µM (inactive)
> 10 µM (inactive)
> 58.2 µM (inactive)
> 100 µM (inactive)

###

Tested on: UACC-257
Test: NCI tumour cell line growth inhibition, 48 h
Active and inactive are the calls of the source. Rule as the data show it: active = GI50 up to about 1.1 µM and inactive = higher.
Assign a class; possible classes are 1 for active, 0 for inactive

In [3]: df
Out[3]:
                                   molecule  category_label
0  COc1ccc(C(c2cc3c(cc2O)OCO3)N2CCOCC2)cc1OC (stereo unspecified)               0
1  CCOc1ccc(C2=NN(CC)C(=O)C(C3C(=O)N(c4ccccc4)N=C3C)C2)cc1 (stereo unspecified)               0

Problem: In this assay, the call recorded for "COc1cccc(CCN2CCN(CCCc3ccccc3)CC2)c1" was what?
Result: 0

Problem: In this assay, the call recorded for "CN(C)CCNC(=O)c1cc(-c2nccn2C)nc2ccccc12" was what?
Result: 0

Problem: In this assay, the call recorded for "Cc1cc(S(=O)(=O)Nc2nc(N)nc(N(C)C)n2)c(S)cc1Cl" was what?
Result: 0

Problem: In this assay, the call recorded for O=S(=O)(O)C(c1ccccc1)C(O)c1ccccc1 (stereo unspecified) was what?
Result: 0

Problem: In this assay, the call recorded for Cc1cn(C2CC(OC3CCCCO3)C(CO)O2)c(=O)[nH]c1=O (stereo unspecified) was what?
Result: 0

Problem: In this assay, the call recorded for CN1CC[C@]2(C)c3ccc(O)cc3CC3CCCC1C32C (stereo partly specified) was what?
Result: 0

Problem: In this assay, the call recorded for "Cc1sc2ncnc(NCCc3ccccc3)c2c1C" was what?
Result: 1

Problem: In this assay, the call recorded for O=C1C(Cl)C(c2cccc(Br)c2)N1c1c(O)c(Cl)cc(Br)c1Cl (stereo unspecified) was what?
Result: 0

Problem: In this assay, the call recorded for CC(C(=O)N1C(=O)N(C(=O)[C@H](C)C(O)c2ccccc2)[C@H](c2ccccc2)[C@H]1c1ccccc1)[C@@H](O)c1ccccc1 (stereo partly specified) was what?
Result: 0

###

System: RXF 393
Assay: NCI tumour cell line growth inhibition, 48 h
Activity calls are given as the source filed them. No stated cut-off is given here; in the data, active = GI50 up to about 1.1 µM and inactive = higher.
observable: GI50

>>> df
                compound               result
0  CN(C)C(=O)NC(=S)N(C)C  > 100 µM (inactive)

The following compounds each have a reported value; give each one's GI50.
1. CCOC(=O)c1cn2c(n1)sc1cccc(C)c12
2. CCCCCCCCCCCC(=O)OCCOCCOCCOCCOCCOCc1ccc(OC)cc1
3. COc1ccc(/C(=N/OCCCC(=O)O)c2cccs2)cc1
4. COC(=O)C1C/C(=C/N(C)C)C(=S)N1 (stereo unspecified)
5. COc1ccc2c(c1)CC[C@@H]1C2CC[C@]2(C)C(=O)N(CCN3CCCC3)C(=O)CC12 (stereo partly specified)
6. CCOc1cc(NC(C)=O)ccc1C(=O)NN1C(=O)/C(=C/c2ccco2)N=C1c1ccccc1
7. Cc1ccc(C2=C(c3ccc(C)cc3)C(c3ccc(C)cc3)=C(c3ccc(C)cc3)C2=O)cc1
8. COc1ccc2c(c1[N+](=O)[O-])CC[C@@H]1[C@@H]2CC[C@]2(C)C(=O)CC[C@@H]12

Result:
["> 100 µM (inactive)", "> 100 µM (inactive)", "> 100 µM (inactive)", "> 100 µM (inactive)", "34 µM (inactive)", "> 100 µM (inactive)", "> 100 µM (inactive)", "> 25 µM (inactive)"]

The following compounds each have a reported value; give each one's GI50.
1. CCOc1ccccc1NC(=O)C(=O)CC(=O)c1sc(Nc2nnc(-c3ccc(Cl)c(Cl)c3)o2)nc1C
2. C1CCNCC1.S=C(S)N1CCCCC1

Result:
> 100 µM (inactive)
190 µM (inactive)
